The reported measurements were obtained from patent US20220226337A1.

Target: α4β7 integrin interaction with MadCAM-1 (RPMI8866 cells) (Homo sapiens, UniProt P13612+P26010)
Construct: α4β7 integrin expressing cells; endogenous in cells
Sequence (P13612 34-1032): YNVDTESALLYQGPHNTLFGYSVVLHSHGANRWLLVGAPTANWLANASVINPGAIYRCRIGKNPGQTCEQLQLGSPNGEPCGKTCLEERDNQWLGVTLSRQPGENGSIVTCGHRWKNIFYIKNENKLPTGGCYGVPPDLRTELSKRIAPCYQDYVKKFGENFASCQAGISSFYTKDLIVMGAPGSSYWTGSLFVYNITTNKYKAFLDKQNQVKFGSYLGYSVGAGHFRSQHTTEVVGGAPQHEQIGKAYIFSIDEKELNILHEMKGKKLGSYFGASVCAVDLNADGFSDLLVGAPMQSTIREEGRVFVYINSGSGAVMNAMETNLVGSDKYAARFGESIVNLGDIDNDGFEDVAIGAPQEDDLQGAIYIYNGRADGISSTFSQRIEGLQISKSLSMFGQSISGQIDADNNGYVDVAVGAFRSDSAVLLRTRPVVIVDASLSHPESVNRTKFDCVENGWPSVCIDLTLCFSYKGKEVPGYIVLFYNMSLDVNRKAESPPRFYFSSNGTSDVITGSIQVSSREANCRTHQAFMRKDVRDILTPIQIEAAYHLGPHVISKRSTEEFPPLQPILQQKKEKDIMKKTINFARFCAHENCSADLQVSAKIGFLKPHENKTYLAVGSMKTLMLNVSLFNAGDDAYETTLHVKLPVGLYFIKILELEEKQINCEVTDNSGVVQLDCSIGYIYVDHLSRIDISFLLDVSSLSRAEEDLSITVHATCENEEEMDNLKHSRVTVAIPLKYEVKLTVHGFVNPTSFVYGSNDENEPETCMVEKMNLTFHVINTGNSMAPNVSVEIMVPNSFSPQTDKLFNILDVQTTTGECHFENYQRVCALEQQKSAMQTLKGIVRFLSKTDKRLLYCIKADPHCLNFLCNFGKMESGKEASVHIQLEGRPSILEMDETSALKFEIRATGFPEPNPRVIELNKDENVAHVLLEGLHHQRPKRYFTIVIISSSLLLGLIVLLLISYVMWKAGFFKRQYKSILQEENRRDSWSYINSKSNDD
Sequence (P26010 20-798): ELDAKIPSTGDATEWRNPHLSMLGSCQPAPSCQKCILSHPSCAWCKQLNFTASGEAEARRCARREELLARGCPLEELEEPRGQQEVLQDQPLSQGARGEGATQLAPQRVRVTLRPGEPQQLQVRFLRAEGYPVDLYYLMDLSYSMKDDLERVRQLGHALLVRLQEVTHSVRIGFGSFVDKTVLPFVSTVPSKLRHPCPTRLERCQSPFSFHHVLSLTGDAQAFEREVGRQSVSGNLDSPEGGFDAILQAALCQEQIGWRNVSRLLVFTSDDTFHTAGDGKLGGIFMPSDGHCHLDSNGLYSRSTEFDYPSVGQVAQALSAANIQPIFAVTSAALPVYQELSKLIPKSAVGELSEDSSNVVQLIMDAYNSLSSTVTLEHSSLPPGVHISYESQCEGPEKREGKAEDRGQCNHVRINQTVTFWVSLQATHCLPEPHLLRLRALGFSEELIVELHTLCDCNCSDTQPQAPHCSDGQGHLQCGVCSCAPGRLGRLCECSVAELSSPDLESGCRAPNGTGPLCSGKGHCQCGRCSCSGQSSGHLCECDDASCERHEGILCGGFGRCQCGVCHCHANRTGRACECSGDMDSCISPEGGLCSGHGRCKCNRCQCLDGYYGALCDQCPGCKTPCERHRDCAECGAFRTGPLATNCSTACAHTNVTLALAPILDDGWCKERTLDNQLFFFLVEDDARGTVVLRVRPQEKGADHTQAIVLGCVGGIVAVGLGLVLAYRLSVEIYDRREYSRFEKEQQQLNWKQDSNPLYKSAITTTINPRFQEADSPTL
Experiment: α4β7 Integrin Cell Capture Assay
Settings: capture of α4β7 integrin expressing RPMI8866 cells on recombinant MadCAM-1 extracellular domain-coated plate; 0.5 mM MnCl2
recorded-metric: log10 EC50 (log10 of the value in nM)
Form field - Quantity: EC50; Unit: nM; Scale: log10

The following molecules have reported results that may help.
Tell me the measured log10 EC50 of `Cc1cc(N2CCOC[C@@H]2C(F)(F)F)cc(F)c1C(=O)N[C@@H](Cc1ccc(-c2c(C)nc(C)n(C)c2=O)c2c1CCC2)C(=O)O` , please.
-1.00

Tell me the measured log10 EC50 of `Cn1c(=O)c(-c2ccc(C[C@H](NC(=O)c3c(F)cc(N4CCOC[C@@H]4C(F)(F)F)cc3F)C(=O)O)c3c2COC3)cc2cnccc21` , please.
-0.47

Further cases:
Tell me the measured log10 EC50 of `Cc1cc(C)n(C)c(=O)c1-c1ccc(C[C@H](NC(=O)c2c(F)cc(N3CCOC[C@@H]3C(F)(F)F)cc2F)C(=O)O)c2c1COC2` , please.
-0.09

Tell me the measured log10 EC50 of `O=C(N[C@@H](Cc1ccc(-c2cccc3c2OCCC3)c2c1CCCO2)C(=O)O)c1c(Cl)cccc1Cl` , please.
1.61

Tell me the measured log10 EC50 of `CCOCc1cc(OC)c(-c2ccc(C[C@H](NC(=O)c3c(F)cccc3F)C(=O)O)c3c2CCCO3)c(OC)c1` , please.
0.97

Tell me the measured log10 EC50 of `CCOCc1cc(OC)c(-c2ccc(C[C@H](NC(=O)c3c(F)cccc3F)C(=O)O)c3c2OCCC3)c(OC)c1` , please.
0.96
